targetSystem: skeletal ryanodine receptor (RyR1) (Ovis aries, UniProt A0ACI6NWU0)
protocolDescription: single-channel recording in planar lipid bilayers (activation); also [3H]ryanodine binding EC50 […]
Format: biochemical
Set-up: native RyR1 channels from skeletal muscle heavy SR vesicles
measuredQuantity: EC50 (nM)

compound | measuredQuantity | valueUnits | numericValue
COCc1c(C(C)C)nc(C(C)C)c(/C=C/[C@@H](O)C[C@@H](O)CC(=O)O)c1-c1ccc(F)cc1 [cerivastatin] | EC50 | nM | 130

====

targetSystem: skeletal ryanodine receptor (RyR1) (Ovis aries, UniProt A0ACI6NWU0)
protocolDescription: increase of [3H]ryanodine binding to SR membrane vesicles (channel activation)
Type: biochemical
Design: native RyR1 in skeletal muscle SR membrane vesicles
condition: read-out: EC50

structureSmilesString | targetSystem | EC50 [nM]
CC(C)c1nc(N(C)S(C)(=O)=O)nc(-c2ccc(F)cc2)c1/C=C/[C@@H](O)C[C@@H](O)CC(=O)O | skeletal ryanodine receptor (RyR1) (Ovis aries, UniProt A0ACI6NWU0) | 490

Sourced from paper PMC9804224
